For each of the molecules below, state its inhibition.
system: Group 3 secretory phospholipase A2 (Homo sapiens) (UniProt Q9NZ20)
Sequence (Q9NZ20 whole entry, looked up): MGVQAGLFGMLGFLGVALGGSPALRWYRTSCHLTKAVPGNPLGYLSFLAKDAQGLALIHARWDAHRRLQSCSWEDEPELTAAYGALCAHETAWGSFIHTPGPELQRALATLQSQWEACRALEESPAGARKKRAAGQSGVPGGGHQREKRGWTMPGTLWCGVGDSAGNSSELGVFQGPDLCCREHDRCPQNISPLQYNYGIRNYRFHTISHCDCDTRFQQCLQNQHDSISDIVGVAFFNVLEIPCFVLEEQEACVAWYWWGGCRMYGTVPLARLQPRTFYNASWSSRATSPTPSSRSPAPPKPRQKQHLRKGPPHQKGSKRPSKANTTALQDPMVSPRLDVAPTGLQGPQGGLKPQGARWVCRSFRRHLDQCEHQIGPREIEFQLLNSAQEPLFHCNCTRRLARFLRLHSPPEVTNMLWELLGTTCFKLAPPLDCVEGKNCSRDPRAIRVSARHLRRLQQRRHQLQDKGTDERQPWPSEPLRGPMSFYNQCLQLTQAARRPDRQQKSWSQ
experimentalProtocol: human group III sPLA2 inhibitors, primary screen, biochemical, QFRET, BODIPY PC-A2 liposome substrate (AID 743126);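 also: 0% = median of test compound wells and 100% = no enzyme DMSO wells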
settings: QFRET BODIPY PC-A2 liposome hydrolysis, fluorescence; at 12.2 µM; active compounds read high
Screen size: about 370,000 compounds; about 2,100 (0.57%) were called active. The sample holds actives, similar compounds and a random draw of the others, so the mix is not that of the screen.
Answers are plain numbers, in %.

Worked set:
In [3]: df
Out[3]:
                                   molecule  measuredmetric  reportedresult
0  C=CCN1C(=O)[C@@H](CC(=O)NCC2CCCCC2)[C@]2(C(=O)OC)CCCCC=C12      inhibition           -6.71
1    Cc1cc(=O)[nH]c(SCC(=O)Nc2ccc(F)cc2F)n1      inhibition           -0.22
2                    N=C(N)SCc1cccc2ccccc12      inhibition            35.3
3  O=C(CSc1nc2ccccc2s1)N=Nc1c(O)[nH]c2ccccc12      inhibition           -40.6
4    Cc1ccc(NCc2n[nH]c(=S)n2-c2ccccc2)cc1Cl      inhibition            12.3
5       O=S(=O)(NC(=S)Nc1ccccc1)c1ccc(F)cc1      inhibition           -1.06
6                 CCn1c(-c2ccncc2)n[nH]c1=S      inhibition            3.35
7  COC(=O)c1cccc(Cn2ccc3ccc(-c4ccc5ccn(C(=O)C6CCCCC6)c5c4)cc32)c1      inhibition           -3.82

Would you mind listing inhibition for each of the following molecules?
1. O=C(c1ccccc1)c1ccc(-c2ccccc2C(=O)NC2CCCCN(Cc3ccc(Cl)cc3)C2=O)cc1 (stereo not drawn)
2. CC(=O)C1(C(=O)Nc2nccs2)CC(c2ccccc2C(F)(F)F)=NO1 (stereo not drawn)
3. CCOc1ccc(Br)cc1S(=O)(=O)N1CCC(C(=O)O)CC1
4. COc1ccc(-c2ccc(Nc3ccc(S(=O)(=O)N4CCCC4)cc3)nn2)cc1OC
5. COc1ccc(C#CCNCc2ccc(OC)cc2OC)cc1
6. O=C(NNC(=S)Nc1ccc(F)cc1)[C@H]1C[C@@H]1c1ccccc1
7. C/C(=N\NC(=S)Nc1ccc(C)cc1)c1cc2ccccc2o1
8. O=C(NC1CCCC1)C1CSCCS(=O)(=O)N1Cc1ccccc1 (stereo not drawn)

Found:
1: -1.89; 2: -9.84; 3: 5.01; 4: 27.2; 5: 12.6; 6: 24; 7: 23.9; 8: 2.48

Would you mind listing inhibition for each of the following molecules?
1. O=C(CN1CCC(NC(=O)NCc2ccccc2)CC1)Nc1ccc2c(c1)OCCO2
2. CC(C)(C)CC(=O)Nc1nc(C(N)Cc2ccc(C(F)(F)F)cc2)cs1 (stereo not drawn)

Found:
1. 4.02
2. 6.39
